Value source: patent US5053431A

This listing pairs molecules with measured IC50.
Test system: [^3 H]TdR incorporation into DNA in HL-60 cells
protocol text: Inhibition of [3H]TdR incorporation into DNA in HL-60 cells (initial 30 min)
Type: cell-based, human
condition parameters: Homo sapiens, 0.5 h; HL-60, initial 30 min exposure; read-out: ID50, M (HL-60 TdR into DNA (B))
Output spec: scalar in µM, unitless text.

| given smiles | units text | reading |
| --- | --- | --- |
| O=C1c2cccc(O)c2C(=O)c2c(O)cc(CNCCCl)cc21 | µM | 39 |
| O=C1c2cccc(O)c2C(=O)c2c(O)cc(CNCCCO)cc21 | µM | 16 |
| COc1cc(O)c2c(c1)C(=O)c1cc(CBr)cc(O)c1C2=O | µM | 340 |

Request: # lookup: IC50 of O=C1c2cccc(O)c2C(=O)c2c(O)cc(CN(CCO)CCO)cc21
Result: 14

Request: Continue with COc1cc(OC)c2c(c1)C(=O)c1cc(C)cc(OC)c1C2=O
Result: 21

Request: Continue with O=C1c2cccc(O)c2C(=O)c2c(O)cc(CBr)cc21
Result: 16

Request: Continue with CCN(CC)Cc1cc(OC)c2c(c1)C(=O)c1cc(OC)cc(OC)c1C2=O
Result: 4.2

Request: Continue with CNC(=O)OCCN(CCOC(=O)NC)Cc1cc(O)c2c(c1)C(=O)c1cccc(O)c1C2=O
Result: 28

Request: Continue with CCNCc1cc(O)c2c(c1)C(=O)c1cc(OC)cc(O)c1C2=O
Result: 13

Request: Continue with CNC(=O)OCCN(CCOC(=O)NC)Cc1cc(OC)c2c(c1)C(=O)c1cccc(OC)c1C2=O
Result: 9.4

Request: Continue with CCNCc1cc(OC)c2c(c1)C(=O)c1cc(OC)cc(OC)c1C2=O
Result: 13

Request: Continue with CCNCc1cc(O)c2c(c1)C(=O)c1cccc(O)c1C2=O
Result: 18
